Would you mind telling me the reported MIC of each entry?
test system: Kluyvera georgiana; assay: Antimicrobial activity against Kluyvera georgiana 14751 expressing beta-lactamase CTX-M-78 obtained from bloodstream of patient by […]; assay type: functional
Kindly provide the numeric value in mg/L only, without the unit symbol.

Given CO/N=C(\C(=O)N[C@@H]1C(=O)N2C(C(=O)O)=C(COC(C)=O)CS[C@H]12)c1csc(N)n1 [CEFOTAXIME] , state its recorded MIC.
0.032

Given NC[C@H]1O[C@H](O[C@H]2[C@H](O)[C@@H](O[C@H]3O[C@H](CO)[C@@H](O)[C@H](N)[C@H]3O)[C@H](N)C[C@@H]2N)[C@H](O)[C@@H](O)[C@@H]1O [KANAMYCIN] , state its recorded MIC.
16

Given CC(C)(O/N=C(\C(=O)N[C@@H]1C(=O)N2C(C(=O)[O-])=C(C[n+]3ccccc3)CS[C@H]12)c1csc(N)n1)C(=O)O [CEFTAZIDIME] , state its recorded MIC.
0.063

Given CO/N=C(\C(=O)N[C@@H]1C(=O)N2C(C(=O)[O-])=C(C[N+]3(C)CCCC3)CS[C@H]12)c1csc(N)n1 [CEFEPIME] , state its recorded MIC.
0.032

Given CCn1cc(C(=O)O)c(=O)c2ccc(C)nc21 [NALIDIXIC ACID] , state its recorded MIC.
128

Given CC1(C)S[C@@H]2[C@H](NC(=O)[C@H](N)c3ccccc3)C(=O)N2[C@H]1C(=O)O [AMPICILLIN] , state its recorded MIC.
256

Given CC(=O)OCC1=C(C(=O)O)N2C(=O)[C@@H](NC(=O)Cc3cccs3)[C@H]2SC1 [CEPHALOTHIN] , state its recorded MIC.
8

Given CO[C@@]1(NC(=O)Cc2cccs2)C(=O)N2C(C(=O)O)=C(COC(N)=O)CS[C@@H]21 [CEFOXITIN] , state its recorded MIC.
1

====

Would you mind telling me the reported MIC of each entry?
tested on: Escherichia coli; test: Antimicrobial activity against Escherichia coli TOP10F' transformant harboring beta-lactamase CTX-M-78 by […]; type: functional
Kindly provide the numeric value in µg/mL only, without the unit symbol.

Given CC(C)(O/N=C(\C(=O)N[C@@H]1C(=O)N2C(C(=O)[O-])=C(C[n+]3ccccc3)CS[C@H]12)c1csc(N)n1)C(=O)O [CEFTAZIDIME] , state its recorded MIC.
0.25

Given CO/N=C(\C(=O)N[C@@H]1C(=O)N2C(C(=O)[O-])=C(C[N+]3(C)CCCC3)CS[C@H]12)c1csc(N)n1 [CEFEPIME] , state its recorded MIC.
0.5

Given CO/N=C(\C(=O)N[C@@H]1C(=O)N2C(C(=O)O)=C(COC(C)=O)CS[C@H]12)c1csc(N)n1 [CEFOTAXIME] , state its recorded MIC.
1

Given CN(C)[C@@H]1C(O)=C(C(N)=O)C(=O)[C@@]2(O)C(O)=C3C(=O)c4c(O)cccc4[C@@](C)(O)[C@H]3C[C@@H]12 [TETRACYCLINE] , state its recorded MIC.
256

Given CC1(C)S[C@@H]2[C@H](NC(=O)[C@H](N)c3ccccc3)C(=O)N2[C@H]1C(=O)O [AMPICILLIN] , state its recorded MIC.
256

Given CC(=O)OCC1=C(C(=O)O)N2C(=O)[C@@H](NC(=O)Cc3cccs3)[C@H]2SC1 [CEPHALOTHIN] , state its recorded MIC.
256

Given NC[C@H]1O[C@H](O[C@H]2[C@H](O)[C@@H](O[C@H]3O[C@H](CO)[C@@H](O)[C@H](N)[C@H]3O)[C@H](N)C[C@@H]2N)[C@H](O)[C@@H](O)[C@@H]1O [KANAMYCIN] , state its recorded MIC.
256

Given C[C@H]1[C@H](NC(=O)/C(=N\OC(C)(C)C(=O)O)c2csc(N)n2)C(=O)N1S(=O)(=O)O [AZTREONAM] , state its recorded MIC.
0.5

Given CCn1cc(C(=O)O)c(=O)c2ccc(C)nc21 [NALIDIXIC ACID] , state its recorded MIC.
2

Given CO[C@@]1(NC(=O)Cc2cccs2)C(=O)N2C(C(=O)O)=C(COC(N)=O)CS[C@@H]21 [CEFOXITIN] , state its recorded MIC.
2
